Target or system Carbonic anhydrase 9 (Homo sapiens): recorded IC50 listed per item.

Take a look at these entries with their results.
O=P(O)(O)C(Nc1ccc(O)cc1)P(=O)(O)O
> 10 µM
O=P(O)(O)C(Nc1cccc(Br)c1)P(=O)(O)O
> 10 µM
O=P(O)(O)C(Nc1ccc(C(F)(F)F)cc1)P(=O)(O)O
> 10 µM
O=P(O)(O)C(Nc1ccccc1)P(=O)(O)O
8.92 µM

Request: GET /values?readout=IC50&item= O=P(O)(O)C(Nc1ccc(Cl)cc1Cl)P(=O)(O)O
Result: > 10 µM

Request: Also, O=P(O)(O)C(Nc1ccc(Oc2ccccc2)cc1)P(=O)(O)O please.
Result: 8.21 µM

Request: Also, Cc1ccc(NC(P(=O)(O)O)P(=O)(O)O)cc1 please.
Result: > 10 µM

Request: Also, O=P(O)(O)C(Nc1ccc(Cl)c(Cl)c1)P(=O)(O)O please.
Result: > 10 µM

Request: Also, O=[N+]([O-])c1cccc(NC(P(=O)(O)O)P(=O)(O)O)c1 please.
Result: > 10 µM

Request: Also, O=P(O)(O)C(O)(Cn1ccnc1)P(=O)(O)O please.
Result: 5.32 µM

###

- TESTED_TARGET: UniProtKB Q9ULX7
- Sequence (Q9ULX7 whole entry): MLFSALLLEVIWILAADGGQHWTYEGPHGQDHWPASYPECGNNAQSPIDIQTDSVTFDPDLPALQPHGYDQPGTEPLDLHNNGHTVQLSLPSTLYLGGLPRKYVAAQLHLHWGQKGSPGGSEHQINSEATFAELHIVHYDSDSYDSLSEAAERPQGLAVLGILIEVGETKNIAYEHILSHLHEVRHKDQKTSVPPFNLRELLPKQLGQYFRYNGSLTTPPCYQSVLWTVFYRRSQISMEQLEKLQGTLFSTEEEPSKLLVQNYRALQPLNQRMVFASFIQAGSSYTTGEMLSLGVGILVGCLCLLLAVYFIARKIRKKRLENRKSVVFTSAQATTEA
Collected IC50 values appear next to each entry.
Value expressed in µM; do not type the unit.

Take a look at these entries with their results.
O=P(O)(O)C(Nc1ccc(Cl)cc1Cl)P(=O)(O)O
7.46
O=P(O)(O)C(Nc1ccc(Cl)c(Cl)c1)P(=O)(O)O
7.84
O=P(O)(O)C(Nc1ccc(Oc2ccccc2)cc1)P(=O)(O)O
5.5
O=P(O)(O)C(Nc1ccc(Oc2ccc(Br)cc2)cc1)P(=O)(O)O
6.12

Request: GET /values?readout=IC50&item= O=P(O)(O)C(Nc1cccc(Br)c1)P(=O)(O)O
Result: 0.911

Request: Also, O=P(O)(O)C(Nc1cccc(-c2ccccc2)c1)P(=O)(O)O please.
Result: 0.309

Request: Also, O=P(O)(O)C(O)(Cn1ccnc1)P(=O)(O)O please.
Result: 0.092

Request: Also, O=[N+]([O-])c1cc(NC(P(=O)(O)O)P(=O)(O)O)ccc1F please.
Result: 8.81

###

Target or system Carbonic anhydrase 12 (Homo sapiens): recorded IC50 listed per item.
Value expressed in nM; do not type the unit.

Take a look at these entries with their results.
O=[N+]([O-])c1ccc(NC(P(=O)(O)O)P(=O)(O)O)cc1
419
O=[N+]([O-])c1cccc(NC(P(=O)(O)O)P(=O)(O)O)c1
88
O=P(O)(O)C(O)(Cn1ccnc1)P(=O)(O)O [ZOLEDRONIC ACID]
316

Request: GET /values?readout=IC50&item= Cc1ccc(NC(P(=O)(O)O)P(=O)(O)O)cc1 [(P-TOLYLAMINO)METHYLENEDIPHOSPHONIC ACID]
Result: 350

###

Target or system Carbonic anhydrase 1 (Homo sapiens): recorded IC50 listed per item.
Value expressed in µM; do not type the unit.

Request: Find IC50 (Carbonic anhydrase 1 (Homo sapiens)) for the entry O=P(O)(O)C(Nc1ccc(C(F)(F)F)cc1)P(=O)(O)O
Result: 6.08

Request: Also, O=P(O)(O)C(Nc1cccc(C(F)(F)F)c1)P(=O)(O)O please.
Result: 5.83

Request: Also, O=[N+]([O-])c1cccc(NC(P(=O)(O)O)P(=O)(O)O)c1 please.
Result: 0.814

Request: Also, O=P(O)(O)C(Nc1ccc(Cl)cc1Cl)P(=O)(O)O please.
Result: 7.14

Request: Also, Cc1ccc(NC(P(=O)(O)O)P(=O)(O)O)cc1 please.
Result: 5.93

These measurements were taken from ChEMBL document CHEMBL3232909.
